Target: T1, EphA2 ligand binding domain (EphA2 LBD), residues 28-200 (UniProt P29317 28-200)
T1 construct: range 28-200; Expressed in E. coli; also called soluble EphA2 LBD; soluble monomeric EphA2 LBD
T1 sequence (P29317 other isoform, or with tags, fused parts or gaps limits assumed, form in doubt): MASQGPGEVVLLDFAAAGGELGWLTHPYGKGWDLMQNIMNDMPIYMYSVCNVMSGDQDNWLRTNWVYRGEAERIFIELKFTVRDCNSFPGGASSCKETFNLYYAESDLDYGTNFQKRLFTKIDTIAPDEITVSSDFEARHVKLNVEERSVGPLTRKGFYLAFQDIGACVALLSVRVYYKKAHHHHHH
Assay: ITC, soluble EphA2 LBD and peptide
Where no end group is shown, it is not given here. [ ]: non-standard residue; d: D form. βAla = NCCC(=O)O
Property Name: Kd (nM)
Please give a number only; it is taken to be in nM.

# get_value(readout='Kd', item= CGAWLAYPDSVPYRPK (also: N-terminally disulfide-linked homodimer, disulfide at 1, other end not in the chain, also called dimer (5); dimeric peptide (5)) [CGA-WLA-YRPK dimer (N-ter)] )
380

# get_value(readout='Kd', item= CGAWLAYPDSVPYR (also: homodimer: N-terminal Cys of two chains joined by disulfide, N-terminally disulfide-linked homodimer made from monomer (15*); also called dimer (4)) [CGA-WLA-YR dimer (N-ter)] )
104

# get_value(readout='Kd', item= [βAla]WLAYPDSVPYGSGC (also: homodimer, disulfide at 15, other end not in the chain, C-terminally disulfide-linked homodimer made from monomer (9*); also called dimer (1); dimeric peptide (1)) [βA-WLA-YGSGC dimer (C-ter)] )
2900

# get_value(readout='Kd', item= [βAla]WLAYPDSVPYRPKC (also: homodimer, disulfide at 15, other end not in the chain, C-terminally disulfide-linked homodimer made from monomer (19*); also called dimer (2); dimeric peptide (2)) [βA-WLA-YRPKC dimer (C-ter)] )
380
